Data provenance is PubChem BioAssay AID602289.

PROTOCOL TEXT: qHTS Assay for Small Molecule Inhibitors of Mitochondrial Division or Activators of Mitochondrial Fusion: Hit Validation in Malachite Green Assay
SETTINGS: purified GTPase, malachite green phosphate release, A650
Out of some 2,400 compounds screened, about 40 (2%) were called active. Roughly 1% stayed inconclusive and do not appear here.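 Rule for the calls: active = inhibition at or above 60%; inconclusive = inhibition from 0% up to below 60%; inactive = no inhibition observed.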 This excerpt belongs to a sample that is enriched for actives.
Answer with one of the outcomes Yes = active, No = inactive

Req: What did the test return for COc1ccc(NC(=O)CN(C)C(=O)c2ccccc2CCc2ccccc2)cc1 ?
Resp: No

Req: Now the compound N#CC(Sc1ccccn1)c1ccc(Cl)cc1 (stereo unspecified)
Resp: Yes

Req: Now the compound O=C1N=C(N2CCN(c3ccccc3)CC2)S/C1=C/c1cccs1
Resp: No

Req: Now the compound CC(C)c1nc2sc3c(=O)[nH]c(=S)[nH]c3c2c2c1CCC2
Resp: Yes

Req: Now the compound COCc1nc2sc3c(c2c(=O)[nH]1)CCCC3
Resp: No

Req: Now the compound COc1ccccc1N1CCN(C(=O)c2cc(=O)c3c(C)cc(C)cc3o2)CC1
Resp: No

Req: Now the compound Cc1ccc(C)c(N2CCN(C(=O)CCCn3c(=O)c4cccn4c4cccnc43)CC2)c1
Resp: No

Req: Now the compound CC1=C(C(=O)OCc2ccccc2)C(/C=C/c2ccccc2)N2C(=O)CCSC2=N1 (stereo unspecified)
Resp: No

Req: Now the compound Cc1ccc2nnn(Cc3cccc(C(C)(C)C)c3O)c2c1
Resp: No

Req: Now the compound O=C(CCNC(=O)c1ccccc1Cl)Nc1ccc(Cl)c(C(F)(F)F)c1
Resp: No

Req: Now the compound C=CCSc1nc(N)c(C#N)c(-c2ccc(C)cc2)c1C#N
Resp: No

====

PROTOCOL TEXT: qHTS Assay for Small Molecule Inhibitors of Mitochondrial Division or Activators of Mitochondrial Fusion: Hit Validation in Malachite Green Assay
SETTINGS: purified GTPase, malachite green phosphate release, A650
Screen size: about 2,400 compounds; about 40 (2%) were called active. Another 1% or so got no clear call; they are omitted.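 The calls were made as follows: active = inhibition at or above 60%; inconclusive = inhibition from 0% up to below 60%; inactive = no inhibition observed.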 Many of the other results were omitted from the sample, so actives are more common in it than they were.
Answer with one of the outcomes active, inactive

Req: What did the test return for COC(=O)c1c(NC(=O)c2ccc(C)o2)sc2c1CCCCC2 ?
Resp: inactive

Req: Now the molecule CCOc1ccc2nc(NC(=O)Nc3cccs3)sc2c1
Resp: inactive

Req: Now the molecule N#Cc1c(NC(=O)C2CC2)sc2c1CCCCC2
Resp: inactive

Req: Now the molecule Nc1nc(Nc2cccc(Cl)c2)nc(NCc2ccco2)c1[N+](=O)[O-]
Resp: inactive

Req: Now the molecule CCOc1ccc(C(=O)Nc2c(C(N)=O)oc3ccccc23)cc1
Resp: inactive

Req: Now the molecule O=[N+]([O-])c1ccc(S(=O)(=O)N2CCN(C3CCN(Cc4ccccc4)CC3)CC2)cc1
Resp: inactive

Req: Now the molecule COc1ccc(S(=O)(=O)N(C(=O)c2ccncc2)c2ccc3oc4c(c3c2)CCCC4)cc1
Resp: inactive

Req: Now the molecule Cc1ccc(C)c(N2CCN(C(=O)c3csc4ccccc34)CC2)c1
Resp: inactive

Req: Now the molecule CC(C)n1c(C(=O)OCC(=O)NCc2ccc3c(c2)OCO3)cc2sccc21
Resp: inactive

Req: Now the molecule Cc1c(NC(=O)c2cccs2)cccc1-c1nc2ccccc2s1
Resp: active

Req: Now the molecule O=C(Nc1cccc(-c2nc3ccccc3s2)c1)c1cccs1
Resp: inactive

====

PROTOCOL TEXT: qHTS Assay for Small Molecule Inhibitors of Mitochondrial Division or Activators of Mitochondrial Fusion: Hit Validation in Malachite Green Assay
SETTINGS: purified GTPase, malachite green phosphate release, A650
Description: The budding yeast S. cerevisiae is a powerful system to study mitochondrial fusion. Unlike other organisms, yeast cells without functional mitochondrial DNA (mtDNA) can be propagated and studied as long as they maintain a mitochondrial compartment and are provided with a fermentable carbon source. When mitochondrial fusion is blocked in yeast, mitochondrial tubules rapidly fragment and division continues unopposed. […]
In all, about 2,400 compounds went through this assay and about 40 (2%) were called active. About 1% were inconclusive and are not listed.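 How the source made its calls: active means inhibition at or above 60%; inconclusive means inhibition from 0% up to below 60%; inactive means no inhibition observed.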 Only a selection was taken, and actives are over-represented in it overall.
Answer with one of the outcomes active, inactive

Req: What did the test return for CC1=C(C)CC(C(=O)NNC(=O)c2csc3c2CCC(C(C)(C)C)C3)C(C(=O)O)C1 (stereo unspecified) ?
Resp: inactive

Req: Now the molecule Cc1c(Cl)cccc1Nc1nc(N)nc(CSc2nc3ccccc3s2)n1
Resp: inactive

Req: Now the molecule CCOC(=O)Nc1sc2c(c1C#N)CCC(C)C2 (stereo unspecified)
Resp: inactive

Req: Now the molecule CCOC(=O)c1sc(NC(=O)C2=COCCO2)c(C#N)c1C
Resp: active

Req: Now the molecule CCCc1ccc(-c2csc(NC(=O)C3=COCCO3)n2)cc1
Resp: inactive

Req: Now the molecule COC(=O)c1cc2c(ccn2-c2ccc(F)cc2)n1Cc1ccc(OC(C)=O)cc1
Resp: inactive

Req: Now the molecule CNC(=O)c1ccsc1NC(=O)c1ccccc1
Resp: inactive

Req: Now the molecule CCOC(=O)c1c(NC(=O)C(C)OC(=O)C2=COCCO2)sc2c1CCCC2 (stereo unspecified)
Resp: inactive

Req: Now the molecule CCOC(=O)c1c(CN2CCN(c3ccccc3)CC2)oc2ccc(O)cc12
Resp: inactive

Req: Now the molecule COC(=O)c1sc2nc(C)nc(SCC(=O)C(C)(C)C)c2c1C
Resp: inactive

Req: Now the molecule Cc1ccc(C)c(NC(=O)c2ccccc2Sc2ccc([N+](=O)[O-])cc2Cl)c1
Resp: inactive

====

PROTOCOL TEXT: qHTS Assay for Small Molecule Inhibitors of Mitochondrial Division or Activators of Mitochondrial Fusion: Hit Validation in Malachite Green Assay
SETTINGS: purified GTPase, malachite green phosphate release, A650
About 40 (2%) of roughly 2,400 compounds were called active. Another 1% or so got no clear call; they are omitted.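 Rule for the calls: active = inhibition at or above 60%; inconclusive = inhibition from 0% up to below 60%; inactive = no inhibition observed.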 This excerpt belongs to a sample that is enriched for actives.
Answer with one of the outcomes YES (active), NO (inactive)

Req: What did the test return for Cc1ccc(N=C2NC(=O)/C(=C\c3ccsc3)S2)c(C)c1 ?
Resp: NO

Req: Now the compound CCOC(=O)c1c(NC(=O)COc2ccccc2F)sc2c1CC(C)(C)NC2(C)C
Resp: NO

Req: Now the compound Clc1ccc(-c2nnc3sc(Cc4cccs4)nn23)cc1
Resp: NO

Req: Now the compound Cc1sc(NC(=O)c2ccco2)nc1-c1ccccc1
Resp: NO

Req: Now the compound COc1ccc(NC(=O)CSCC(=O)N(C)Cc2ccc(Cl)c(Cl)c2)cc1
Resp: NO

Req: Now the compound O=C(Nc1cc(-c2ccccc2)cs1)c1ccco1
Resp: NO

Req: Now the compound O=[N+]([O-])c1ccccc1SN(Cc1ccccc1)c1ccccn1
Resp: NO

Req: Now the compound Cc1c(/C=N\NC(=O)C2COc3ccc(C(C)(C)C)cc3O2)c2ccccc2n1C (stereo not given)
Resp: NO

Req: Now the compound Cc1cc(SCC(=O)c2ccc(Cl)cc2)nc(=O)[nH]1
Resp: YES

Req: Now the compound CCN(CC(=O)Nc1cc(S(=O)(=O)N2CCCCC2)ccc1Cl)Cc1ccccc1
Resp: NO

Req: Now the compound O=C(/C=C/c1ccccc1Cl)c1ccc[nH]1
Resp: NO

Req: Now the compound Nc1c(-c2ccccc2)c(CSc2nc3ccccc3[nH]2)nn1-c1ccc(Cl)cc1
Resp: NO

Req: Now the compound NC(=O)c1cc(Cc2ccccc2)sc1NC(=O)c1ccco1
Resp: YES

Req: Now the compound COc1cc(OC)cc(-c2c(-c3cccs3)c3cc(-c4ccn[nH]4)ccc3n2C)c1
Resp: NO

Req: Now the compound Cc1cc(=O)oc2c(C(=O)/C=C\c3cccs3)c(O)ccc12
Resp: NO

Req: Now the compound O=C(O)c1ccccc1CSc1nc2ccccc2n1Cc1ccccc1C(=O)O
Resp: NO

Req: Now the compound CCN(CC)c1ccc(/C=N/NC(=O)c2ccc([N+](=O)[O-])cc2)cc1
Resp: NO

Req: Now the compound O=[N+]([O-])c1ccc(O)c(P(=O)(c2ccccc2)c2ccccc2)c1
Resp: NO

Req: Now the compound Cc1ccc2c(nc3s/c(=C\c4ccc(-c5ccccc5C(=O)O)o4)c(=O)n32)c1C
Resp: YES

Req: Now the compound Cc1ccc(C)c(/C=C/C(=O)c2ccccc(=O)c2O)c1
Resp: YES

Req: Now the compound CC1=C(C(=O)OCc2ccccc2)C(/C=C/c2ccccc2)NC(=S)N1 (stereo not given)
Resp: NO

Req: Now the compound O=C(/C=C/c1ccccc1Cl)c1ccccc(=O)c1O
Resp: YES

Req: Now the compound Cc1cccc(C(=O)N(Cc2nc3ccccc3c(=O)[nH]2)C2CCCCC2)c1
Resp: NO

Req: Now the compound COc1ccc(Nc2ncc(C(=O)N3CCN(Cc4ccccc4)CC3)c3ccccc23)cc1
Resp: NO

Req: Now the compound CS/C(=N\S(=O)(=O)c1cccs1)Nc1ccc(Br)cc1F
Resp: NO

Req: Now the compound O=C(N/N=C/c1cn(-c2cccs2)nc1-c1ccccc1)c1ccccc1Cl
Resp: NO

Req: Now the compound Cc1occc1C(=O)NC1CCCCCCC1
Resp: NO

Req: Now the compound Cc1cc2nc3s/c(=C/c4ccc(-c5ccccc5C(=O)O)o4)c(=O)n3c2cc1C
Resp: YES

Req: Now the compound Cc1ccc(C(=O)CSc2nc(C(C)C)nc3ccccc23)cc1
Resp: NO

Req: Now the compound Cc1ccccc1Nc1nc(N)nc(CSc2nc3ccccc3s2)n1
Resp: NO

Req: Now the compound c1ccc(-c2nnc3sc(-c4csc5c4CCCC5)nn23)cc1
Resp: YES

Req: Now the compound COc1ccc(-c2nn(-c3ccccc3)cc2/C=N/Nc2ccc3ccccc3n2)cc1OC
Resp: NO

Req: Now the compound Cc1nc(NCc2ccccn2)c2c3c(sc2n1)CCCC3
Resp: NO

Req: Now the compound CCOc1ccc(CN(C(=O)c2cc3ccccc3oc2=O)C2CC2)cc1
Resp: NO

Req: Now the compound Cc1ccccc1N=C(NOCc1ccccc1)c1nonc1N
Resp: NO

Req: Now the compound CCCc1nnc(NC(=O)CCC(=O)O)s1
Resp: NO

Req: Now the compound COc1ccc(Cl)cc1NC(=O)CN(C)C(=O)c1cc2c(F)cccc2s1
Resp: NO

Req: Now the compound C/C(N)=C(/C#N)C(=O)COC(=O)C(c1ccccc1)c1ccccc1
Resp: NO

Req: Now the compound O=C(/C=C/c1cccs1)N1CCC2(CC1)Oc1ccc(Cl)cc1C(=O)C21CC(c2cccnc2)=NO1 (stereo not given)
Resp: NO

Req: Now the compound CCCc1cc(C(N)=O)c(NC(=O)c2ccoc2C)s1
Resp: YES

Req: Now the compound Cc1c(C(=O)O)cccc1-c1ccc(/C=N/Nc2ccc(Br)cc2)o1
Resp: NO

Req: Now the compound CCCCc1cc(=O)oc2cc(OS(C)(=O)=O)ccc12
Resp: NO

Req: Now the compound O=C(c1cc(S(=O)(=O)N2CCN(c3ccccc3)CC2)ccc1Cl)N1CCCCCCC1
Resp: NO

Req: Now the compound CCOC(=O)c1ccc(NC(=S)N2CCSC2c2ccc(Cl)cc2)cc1 (stereo not given)
Resp: NO

Req: Now the compound Cc1cc(-c2ccc(C)c(S(=O)(=O)NCc3ccc(Br)cc3)c2)on1
Resp: NO
